- tested.target: CaBzz1-D1
- assay.comment: SPOT peptide array binding signal intensity (averaged, normalized) (arbitrary units (background-subtracted, floor 0; scale differs between SH3 domains)); higher = stronger binding of the SH3 domain to the peptide
measurement.name: SPOT peptide array binding signal intensity
Just the number, please, no unit after it.

Below, 4 binders whose answers are already recorded.
SHRLWLYAAPKRPKT | 73
KRRAPPPVPKKPSSR | 7240
STPQTMRQAPKRPDA | 532
NGRRRPKFRVQLSGN | 185

Q) Requested read-out: SPOT peptide array binding signal intensity. Entry: PLRRTVMSLPGNHDI
A) 172

Q) What do you get for RNNRPVPPPPPMRTT ?
A) 5240

Q) Also, SLSRRRFSLPSMPNV please.
A) 183

Q) For PSTMDFPKLPSFQNS then?
A) 85

Q) Please answer likewise for EAEEAAPQLPSRSSA
A) 1
